This collection of values is drawn from ChEMBL document CHEMBL4316613.

test: Inhibition of Neisseria meningitidis APN
Measured pKi, listed per entry.
Note on pKi: it is the negative log10 of concentration, concentration in mol/L.

Inquiry: What value of pKi has been recorded for this entry: NC(CCc1ccccc1)P(=O)(O)CC(Cc1ccc(O)cc1)C(=O)O (configuration not stated)
Reply text: 7.27

Inquiry: Could you tell me which pKi is on file for NC(CCc1ccccc1)P(=O)(O)CC(Cc1ccccc1)C(=O)O (configuration not stated) ?
Reply text: 6.52

###

assay: Inhibition of Helicobacter pylori Csd4
measured.metric: pKi
// pKi is dimensionless: -log10 of concentration (M)

Inquiry: What value of measured pKi is listed for CC(=O)N[C@H](CCP(=O)(O)CC(CCC[C@@H](N)C(=O)O)C(=O)O)C(=O)O (stereo partly specified) ?
Reply text: 5.82
